Listing of entries alongside the reported JAK3/AurB Fold Selectivity.
- EXPERIMENTAL SYSTEM: Aurora B (Homo sapiens)
- Construct: cell lysates from Jurkat cells (ATCC TIB-152) used; endogenous in cells; host or cells: Jurkat cells (ATCC TIB-152), treated with pervanadate
- Sequence (Q96GD4 whole entry): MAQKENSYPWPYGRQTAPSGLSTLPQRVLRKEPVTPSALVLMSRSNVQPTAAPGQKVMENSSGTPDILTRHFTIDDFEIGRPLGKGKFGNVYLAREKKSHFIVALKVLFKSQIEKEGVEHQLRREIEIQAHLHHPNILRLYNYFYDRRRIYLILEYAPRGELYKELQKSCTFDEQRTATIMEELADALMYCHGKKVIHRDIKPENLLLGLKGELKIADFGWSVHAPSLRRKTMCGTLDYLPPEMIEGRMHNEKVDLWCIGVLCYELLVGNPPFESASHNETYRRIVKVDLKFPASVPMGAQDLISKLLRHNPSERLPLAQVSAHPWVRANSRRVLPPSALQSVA
- TEST NAME: Kinobeads assay, Aurora B
- Format: binding

Past entries and their recorded results:
Cn1cc(Nc2ncc3cnn(Cc4cc(F)cc(N5CCOCC5)c4)c3n2)cn1 [Example 49]; >50 Fold
O=C1COCCN1c1cc(F)c(F)c(Cn2ncc3cnc(Nc4cnn(CCO)c4)nc32)c1 [Example 59]; 10-50 Fold
CN(C)CCCn1cc(Nc2ncc3cnn(Cc4cccc(N5CCOCC5=O)c4F)c3n2)cn1 [Example 50]; >50 Fold

Let us move to another entry and its JAK3/AurB Fold Selectivity.
// recorded JAK3/AurB Fold Selectivity for Cn1cc(Nc2ncc3cnn(Cc4cc(N5CCOCC5)ccc4F)c3n2)cn1 [Example 15] : 10-50 Fold
